tested on: HepG2; assay: Cytotoxicity against human HepG2 cells assessed as reduction in cell viability; format: functional, cell-based
pIC50: −log10 of the molar value.

{"smiles_structure": "C[C@H]1COc2c(N3CCN(C)CC3)c(F)cc3c(=O)c(-c4nnc(NC(=O)CCCC(=O)O)s4)cn1c23", "pIC50": "4.84 to 5.96"}
{"smiles_structure": "C[C@H]1COc2c(N3CCN(C)CC3)c(F)cc3c(=O)c(-c4nnc(NC(=O)CCCCC(=O)Nc5ccccc5N)s4)cn1c23", "pIC50": "6.69 to 7.34"}
{"smiles_structure": "C[C@H]1COc2c(N3CCN(C)CC3)c(F)cc3c(=O)c(-c4nnc(NC(=O)CCCC(=O)NO)s4)cn1c23", "pIC50": "6.90 to 7.72"}
{"smiles_structure": "C[C@H]1COc2c(N3CCN(C)CC3)c(F)cc3c(=O)c(-c4nnc(NC(=O)CCCCCCC(=O)O)s4)cn1c23", "pIC50": "4.84 to 5.96"}

* * *

system: CAPAN-1; test: Cytotoxicity against human Capan1 cells assessed as reduction in cell viability; format: functional, cell-based

{"smiles_structure": "CN1CCN(c2cc3c(cc2F)c(=O)c(-c2nc4s/c(=C\\c5ccc([N+](=O)[O-])cc5)c(=O)n4n2)cn3C2CC2)CC1", "experimental_target": "CAPAN-1", "IC50": "0.3 to 8.4 µM"}
{"smiles_structure": "CN1CCN(c2cc3c(cc2F)c(=O)c(-c2nc4s/c(=C\\c5cccc(S(N)(=O)=O)c5)c(=O)n4n2)cn3C2CC2)CC1", "experimental_target": "CAPAN-1", "IC50": "0.3 to 8.4 µM"}
{"smiles_structure": "CN1CCN(c2cc3c(cc2F)c(=O)c(-c2nc4s/c(=C\\c5ccc(C#N)cc5)c(=O)n4n2)cn3C2CC2)CC1", "experimental_target": "CAPAN-1", "IC50": "> 10 µM"}
{"smiles_structure": "CN1CCN(c2cc3c(cc2F)c(=O)c(-c2nc4s/c(=C\\c5cccc([N+](=O)[O-])c5)c(=O)n4n2)cn3C2CC2)CC1", "experimental_target": "CAPAN-1", "IC50": "0.3 to 8.4 µM"}

* * *

Below, each of the compounds is paired with its reported pIC50 value.
system: HCT-116; assay: Cytotoxicity against human HCT116 cells assessed as reduction in cell viability by SRB assay; type: functional, cell-based
pIC50: −log10 of the molar value.

{"smiles_structure": "CC(=O)n1cc2c(=O)[nH]c3ccccc3c2n1", "pIC50": "6.52 to 6.80"}
{"smiles_structure": "O=c1[nH]c2ccccc2c2n[nH]c(/C=C/c3ccccc3)c12", "pIC50": "6.52 to 6.80"}
{"smiles_structure": "COc1ccc(-c2c3c(=O)[nH]c4ccccc4c3nn2C(C)=O)cc1", "pIC50": "6.52 to 6.80"}
{"smiles_structure": "COc1ccc2c(c1)c(=O)c(C(=O)Nc1cc(-c3ccccc3)nn1C)cn2CCCCCC(=O)NO", "pIC50": "4.80 to 6.22"}
{"smiles_structure": "CC(=O)n1nc2c(c1-c1cccs1)c(=O)[nH]c1ccccc12", "pIC50": "6.52 to 6.80"}
